Target: Coagulation factor X (Homo sapiens, UniProt P00742)
Sequence (P00742 41-179 limits assumed): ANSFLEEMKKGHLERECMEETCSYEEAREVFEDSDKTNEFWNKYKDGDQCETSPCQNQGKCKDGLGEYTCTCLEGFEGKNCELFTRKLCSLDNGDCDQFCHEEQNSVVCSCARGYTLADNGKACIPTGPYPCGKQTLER
Sequence (P00742 235-488 limits assumed): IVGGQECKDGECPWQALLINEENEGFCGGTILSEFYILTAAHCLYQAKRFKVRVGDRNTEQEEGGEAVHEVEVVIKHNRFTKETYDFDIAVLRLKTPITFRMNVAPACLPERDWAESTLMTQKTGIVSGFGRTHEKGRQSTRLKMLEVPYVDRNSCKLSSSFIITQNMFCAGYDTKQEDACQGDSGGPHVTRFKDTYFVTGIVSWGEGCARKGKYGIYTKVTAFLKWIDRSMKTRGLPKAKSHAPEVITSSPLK
Assay: Inhibition of human factor 10a in presence of saturating prothrombin at 37 degC
endpoint.name: pKi
Expect pKi as a plain number equal to -log10 of the molar concentration.

Req: Which pKi is reported for this molecule? CCOC(=O)N1C[C@H](NC(=O)c2ccc(-n3ccccc3=O)cc2)[C@H](NC(=O)c2ccc(Cl)s2)C1
Resp: 7.52

###

Biological target: Coagulation factor X (Homo sapiens)
Assay: Inhibition of human factor 10a in presence of tripeptide substrate at 37 degC
endpoint.name: Ki (nM)
A number alone suffices; assume nM.

Req: Which Ki is reported for this compound? CCOC(=O)N1C[C@H](NC(=O)c2ccc(-n3ccccc3=O)cc2)[C@H](NC(=O)c2ccc(Cl)s2)C1
Resp: 2.6

###

Experiment: Bioavailability in dog at 0.2 mg/kg, po
Assay type: ADME, organism-based, Canis lupus familiaris
Details: in vivo
Each entry below carries its reported bioavailability.
A number alone suffices; assume %.

{"smiles.entry": "CC(=O)N1C[C@H](NC(=O)c2ccc(-n3ccccc3=O)cc2)[C@H](NC(=O)c2ccc(Cl)s2)C1", "bioavailability (%)": 5}
{"smiles.entry": "CCOC(=O)N1C[C@H](NC(=O)c2ccc(-n3ccccc3=O)cc2)[C@H](NC(=O)c2ccc(Cl)s2)C1", "bioavailability (%)": 25}
{"smiles.entry": "O=C(N[C@H]1COC[C@H]1NC(=O)c1ccc(Cl)s1)c1ccc(-n2ccccc2=O)cc1", "bioavailability (%)": 97}
{"smiles.entry": "O=C(N[C@H]1CCC[C@H]1NC(=O)c1ccc(Cl)s1)c1ccc(-n2ccccc2=O)cc1", "bioavailability (%)": 60}

Req: Which bioavailability is reported for this compound? CCS(=O)(=O)N1C[C@H](NC(=O)c2ccc(-n3ccccc3=O)cc2)[C@H](NC(=O)c2ccc(Cl)s2)C1
Resp: 16

###

Assay: Half life in dog at 0.2 mg/kg, po
Format: ADME, organism-based, Canis lupus familiaris
Design: dose 0.2 mg/kg, route oral
Conditions: in vivo
endpoint.name: half-life (h)
A number alone suffices; assume h.

{"smiles.entry": "CCS(=O)(=O)N1C[C@H](NC(=O)c2ccc(-n3ccccc3=O)cc2)[C@H](NC(=O)c2ccc(Cl)s2)C1", "half-life [h]": 1.3}

Req: Which half-life is reported for this compound? CCOC(=O)N1C[C@H](NC(=O)c2ccc(-n3ccccc3=O)cc2)[C@H](NC(=O)c2ccc(Cl)s2)C1
Resp: 2.7

Req: Which half-life is reported for this compound? O=C(N[C@H]1CCC[C@H]1NC(=O)c1ccc(Cl)s1)c1ccc(-n2ccccc2=O)cc1
Resp: 0.7

Req: Which half-life is reported for this compound? CC(=O)N1C[C@H](NC(=O)c2ccc(-n3ccccc3=O)cc2)[C@H](NC(=O)c2ccc(Cl)s2)C1
Resp: 0.8

Req: Which half-life is reported for this compound? O=C(N[C@H]1COC[C@H]1NC(=O)c1ccc(Cl)s1)c1ccc(-n2ccccc2=O)cc1
Resp: 1.2

###

For Prothrombin (Homo sapiens), measured pKi is reported for the entries below.
Expect pKi as a plain number equal to -log10 of the molar concentration.

Example compounds with recorded pKi:
{"smiles.entry": "CCOC(=O)N1C[C@H](NC(=O)c2ccc(-n3ccccc3=O)cc2)[C@H](NC(=O)c2ccc(Cl)s2)C1", "assayed.system": "Prothrombin (Homo sapiens)", "recorded.value": 5.40}
{"smiles.entry": "CC(=O)N1C[C@H](NC(=O)c2ccc(-n3ccccc3=O)cc2)[C@H](NC(=O)c2ccc(Cl)s2)C1", "assayed.system": "Prothrombin (Homo sapiens)", "recorded.value": 5.26}

--- query ---
Req: Which pKi is reported for this compound? CCS(=O)(=O)N1C[C@H](NC(=O)c2ccc(-n3ccccc3=O)cc2)[C@H](NC(=O)c2ccc(Cl)s2)C1
Resp: 5.40
